# Test system: EKVX
# measurementNotes: NCI tumour cell line growth inhibition, 48 h
Active and inactive are the calls of the source. Cut-off read from the data, not from the text of the source: active = GI50 up to about 1.1 µM and inactive = higher.
Output constraint: value belongs to active, inactive

# molecule, studyTarget, labelValue
records = [
    ("CCOC(=O)CSc1[nH]c(NC(=S)Nc2ccccc2)c(C(N)=O)c1C(N)=O", "EKVX", "inactive"),
    ("C=CCNC(=O)NCCCC(NC(C)=O)C(=O)NCc1ccccc1 (stereo not given)", "EKVX", "inactive"),
    ("O=C(NCc1cccnc1)C1COc2cc(-c3cc(=O)c4ccccc4o3)ccc2O1 (stereo not given)", "EKVX", "inactive"),
    ("CC(=O)O[C@H]1C(N(C)C(=O)c2ccccc2)CC[C@]2(C)C3CC[C@@]4(C)C(CC(O)[C@@H]4C(C)N(C)C)[C@@H]3CCC12 (stereo not given in full)", "EKVX", "inactive"),
    ("CN(C)c1ccc2c(c1)C(=O)N(OS(=O)(=O)c1ccc([N+](=O)[O-])cc1)C2=O", "EKVX", "inactive"),
]

Ask: Per the records of this test, what outcome belongs to Cc1cc2c(cc1Cl)SC(NNCCO)=NS2(=O)=O ?
Result: inactive

Ask: Per the records of this test, what outcome belongs to OCC(O)CNc1ccnc2cc(Cl)ccc12 (stereo not given) ?
Result: inactive
